# Tested on: human bradykinin 1 receptor (B1R) (Homo sapiens, UniProt P46663)
# Construct: expressed in transfected cells
# Sequence (P46663 whole entry): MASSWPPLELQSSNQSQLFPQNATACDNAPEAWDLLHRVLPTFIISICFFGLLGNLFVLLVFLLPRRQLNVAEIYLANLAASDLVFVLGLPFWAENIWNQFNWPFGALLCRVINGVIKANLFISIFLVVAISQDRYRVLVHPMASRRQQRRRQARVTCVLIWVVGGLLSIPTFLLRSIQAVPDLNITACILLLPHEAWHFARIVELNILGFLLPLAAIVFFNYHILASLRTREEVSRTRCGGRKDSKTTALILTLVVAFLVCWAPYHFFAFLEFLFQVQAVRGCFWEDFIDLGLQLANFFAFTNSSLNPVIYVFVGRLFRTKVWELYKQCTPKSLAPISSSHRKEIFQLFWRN
# Test name: FLIPR Ca2+ assay, B1R antagonism, human
# Type: cell-based
# Settings: 10 μM test substance; CHO K1 cells with human B1R gene (hB1R cells); Lys-Des-Arg9-bradykinin at EC80; % inhibition compared with the maximum achievable inhibition; read-out: B1R antagonism, human [10 μM] % inhibition
Endpoint name: inhibition at 10 µM (%)
Number in %, nothing else.

{"columns": ["Compound", "Tested on", "Value unit", "inhibition at 10 µM"],
 "data": [
  ["COc1cc(C)c(S(=O)(=O)N2CCCCC2COCC(=O)N2CCC(OCCCN3CCN(C)CC3)(c3cccnc3)CC2)c(C)c1 (centres unmarked)", "human bradykinin 1 receptor (B1R) (Homo sapiens, UniProt P46663)", "%", 98],
  ["COc1cc(C)c(S(=O)(=O)N2CCCCC2COCCC(=O)N2CCC(OCCN3CCCC3)(c3cccc(F)c3)CC2)c(C)c1 (centres unmarked)", "human bradykinin 1 receptor (B1R) (Homo sapiens, UniProt P46663)", "%", 100]
]}

q: Entry COc1cc(C)c(S(=O)(=O)N2c3ccccc3CCC2COCC(=O)N2CCC(OCCN3CCCC3)(c3ccncc3)CC2)c(C)c1 (centres unmarked) : reported inhibition at 10 µM = ?
a: 100

q: Note, next up: COc1cc(C)c(S(=O)(=O)N2c3ccccc3CCC2COCC(=O)N2CCC(OCCN3CCCC3)(c3cccnc3)CC2)c(C)c1 (centres unmarked)
a: 100

q: Note, next up: O=C(COCC1COc2ccccc2N1S(=O)(=O)c1ccccc1C(F)(F)F)N1CCC(OCCN2CCCC2)(c2ccncc2)CC1 (centres unmarked)
a: 100

q: Note, next up: O=C(CC1CCCCN1S(=O)(=O)c1cccc(C(F)(F)F)c1)N1CCC(OCCN2CCCCC2)(c2cccnc2)CC1 (centres unmarked)
a: 104

q: Note, next up: Cc1cccc(Cl)c1S(=O)(=O)N(CCOCC(=O)N1CCC(OCCN2CCCC2)(c2cccc(F)c2)CC1)C1CC1
a: 100

q: Note, next up: CN1CCN(CCCOC2(c3cccnc3)CCN(C(=O)CC3CCCCN3S(=O)(=O)c3cccc(C(F)(F)F)c3)CC2)CC1 (centres unmarked)
a: 21

q: Note, next up: COc1cc(C)c(S(=O)(=O)N(C)CCOCC(=O)N2CCC(OCCCN3CCCCC3)(c3cccnc3)CC2)c(C)c1
a: 102

q: Note, next up: O=C(COCCN(C1CCc2ccccc21)S(=O)(=O)c1ccc(Cl)cc1Cl)N1CCC(OCCN2CCCC2)(c2cccnc2)CC1 (centres unmarked)
a: 99

q: Note, next up: COc1cc(C)c(S(=O)(=O)N(C)CCOCC(=O)N2CCC(OCCN3CCCCC3)(c3cccnc3)CC2)c(C)c1
a: 104

q: Note, next up: COc1cc(C)c(S(=O)(=O)N(CCOCC(=O)N2CCC(OCCN3CCCC3)(c3cccnc3)CC2)Cc2cccnc2)c(C)c1
a: 100

q: Note, next up: COc1cc(C)c(S(=O)(=O)N(C)CCOCC(=O)N2CCC(OCCN3CCCC3)(c3cccc(F)c3)CC2)c(C)c1C
a: 100

q: Note, next up: CN1CCN(CCOC2(c3cccnc3)CCN(C(=O)CC(NS(=O)(=O)c3ccc4ccccc4c3)c3ccccc3)CC2)CC1 (centres unmarked)
a: 63

----------
Some molecules, each annotated with its measured inhibition at 10 µM.
# Tested on: human bradykinin 1 receptor (B1R) (Homo sapiens)
# Construct: expressed in transfected cells
# Test name: FLIPR Ca2+ assay, B1R antagonism, human
# Format: cell-based
# Settings: 10 μM test substance; CHO K1 cells with human B1R gene (hB1R cells); Lys-Des-Arg9-bradykinin at EC80; % inhibition compared with the maximum achievable inhibition; read-out: B1R antagonism, human [10 μM] % inhibition
Number in %, nothing else.

{"columns": ["Molecule", "Tested on", "inhibition at 10 µM [%]"],
 "data": [
  ["COc1cc(C)c(S(=O)(=O)N(C)CCOCC(=O)N2CCC(OCCN3CCCC3)(c3cccc(F)c3)CC2)c(C)c1", "human bradykinin 1 receptor (B1R) (Homo sapiens)", 100],
  ["COc1cc(C)c(S(=O)(=O)N(CCOCC(=O)N2CCC(OCC[N+]3(C)CCCC3)(c3cccnc3)CC2)C2CC2)c(C)c1", "human bradykinin 1 receptor (B1R) (Homo sapiens)", 100],
  ["CN1CCN(CCCOC2(c3cccnc3)CCN(C(=O)COCC3CCc4ccccc4N3S(=O)(=O)c3ccc(Cl)c(Cl)c3)CC2)CC1 (stereo not shown)", "human bradykinin 1 receptor (B1R) (Homo sapiens)", 77]
]}

# next molecule below
q: Entry Cc1cccc(Cl)c1S(=O)(=O)N1CCCCC1CCCC(=O)N1CCC(OCCN2CCCC2)(c2cccc(F)c2)CC1 (stereo not shown) : reported inhibition at 10 µM = ?
a: 100

----------
# Tested on: bradykinin 1 receptor (B1R) of the rat (Rattus norvegicus, UniProt P97583)
# Construct: expressed in transfected cells
# Sequence (P97583 1-337): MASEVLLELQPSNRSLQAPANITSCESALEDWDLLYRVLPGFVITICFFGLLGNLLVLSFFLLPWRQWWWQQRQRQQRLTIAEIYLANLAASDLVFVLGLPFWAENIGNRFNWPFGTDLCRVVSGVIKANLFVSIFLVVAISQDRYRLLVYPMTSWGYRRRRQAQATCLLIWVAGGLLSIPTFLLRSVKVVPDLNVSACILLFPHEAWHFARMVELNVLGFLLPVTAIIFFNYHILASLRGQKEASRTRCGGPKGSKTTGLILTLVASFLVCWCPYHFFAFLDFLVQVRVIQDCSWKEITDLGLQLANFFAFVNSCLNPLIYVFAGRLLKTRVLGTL
# Test name: FLIPR Ca2+ assay, B1R antagonism, rat
# Assay type: cell-based
# Settings: CHO-K1, 10 μM test substance; CHO K1 cells with rat B1R gene (rB1R cells); Des-Arg9-bradykinin at EC80; % inhibition compared with the maximum achievable inhibition; read-out: B1R antagonism, rat [10 μM] % inhibition
Endpoint name: inhibition at 10 µM (%)
Number in %, nothing else.

q: Entry COc1cc(C)c(S(=O)(=O)N(CCOCC(=O)N2CCC(OCCN3CCCC3)(c3cccnc3)CC2)C(c2ccccc2)c2ccccc2)c(C)c1 : reported inhibition at 10 µM = ?
a: 100

q: Note, next up: Cc1cccc(Cl)c1S(=O)(=O)N(CCOCC(=O)N1CCC(OCCN2CCCC2)(c2cccc(F)c2)CC1)C1CC1
a: 102

q: Note, next up: COc1cc(C)c(S(=O)(=O)N2CCCCC2COCC(=O)N2CCC(OCCN3CCCC3)(c3cccc(F)c3)CC2)c(C)c1 (stereo not shown)
a: 99

----------
# Tested on: human bradykinin 1 receptor (B1R) (Homo sapiens, UniProt P46663)
# Construct: expressed in transfected cells
# Test name: FLIPR Ca2+ assay, B1R antagonism, human
# Assay type: cell-based
# Settings: 10 μM test substance; CHO K1 cells with human B1R gene (hB1R cells); Lys-Des-Arg9-bradykinin at EC80; % inhibition compared with the maximum achievable inhibition; read-out: B1R antagonism, human [10 μM] % inhibition
Where a name gives a salt, the structure may show the parent alone.
Some molecules, each annotated with its measured inhibition at 10 µM.
Number in %, nothing else.

Examples from the recorded data:
{"columns": ["Molecule", "Experimental result"],
 "data": [
  ["O=C(CC1CCCCN1S(=O)(=O)c1cccc(C(F)(F)F)c1)N1CCC(OCCCN2CCCC2)(c2cccnc2)CC1 (centres unmarked)", 52],
  ["COc1cc(C)c(S(=O)(=O)N(C)CCOCC(=O)N2CCC(OCCN3CCCC3)(c3cccnc3)CC2)c(C)c1C", 100],
  ["O=C(COC[C@@H]1CCCCN1S(=O)(=O)c1ccccc1C(F)(F)F)N1CCC(OCCN2CCCC2)(c2cccnc2)CC1", 100],
  ["COc1cc(C)c(S(=O)(=O)N2CCCC[C@H]2COCC(=O)N2CCC(OCCN3CCC3)(c3cccnc3)CC2)c(C)c1", 100],
  ["COc1cc(C)c(S(=O)(=O)N2CCCC[C@H]2COCC(=O)N2CCC(OCCN3CCCC3)(c3cccnc3)CC2)c(C)c1 [Example 46, hydrochloride]", 100],
  ["COc1cc(C)c(S(=O)(=O)N(CCOCC(=O)N2CCC(OCCN3CCCC3)(c3cccnc3)CC2)C(c2ccccc2)c2ccccc2)c(C)c1", 98],
  ["Cc1cc(S(=O)(=O)N2CCCCC2CCC(=O)N2CCC(OCCCN3CCN(C)CC3)(c3cccnc3)CC2)c(C)cc1Cl (centres unmarked)", 85],
  ["COc1cc(C)c(S(=O)(=O)N2c3ccccc3OCC2COCC(=O)N2CCC(OCCN3CCCC3)(c3ccncc3)CC2)c(C)c1 (centres unmarked)", 100]
]}

q: Entry COc1cc(C)c(S(=O)(=O)N2CCCCC2COCC(=O)N2CCC(OCCN3CCCCC3)(c3cccnc3)CC2)c(C)c1 (centres unmarked) : reported inhibition at 10 µM = ?
a: 103

q: Note, next up: O=C(CC(NS(=O)(=O)c1ccc2ccccc2c1)c1ccccc1)N1CCC(OCCCN2CCCCC2)(c2cccnc2)CC1 (centres unmarked)
a: 83

q: Note, next up: O=C(CCCC1CCCCN1S(=O)(=O)c1ccccc1C(F)(F)F)N1CCC(OCCN2CCCC2)(c2cccnc2)CC1 (centres unmarked)
a: 70

q: Note, next up: Cc1cccc(Cl)c1S(=O)(=O)N1c2ccccc2OCC1COCC(=O)N1CCC(OCCN2CCCC2)(c2cccc(F)c2)CC1 (centres unmarked)
a: 91

q: Note, next up: O=C(CC(NS(=O)(=O)c1ccc2ccccc2c1)c1ccccc1)N1CCC(OCCN2CCCC2)(c2cccnc2)CC1 (centres unmarked)
a: 87

q: Note, next up: COc1cc(C)c(S(=O)(=O)N2CCCCC2COCC(=O)N2CCC(OCCN3CCCC3)(c3cccnc3)CC2)c(C)c1 (centres unmarked)
a: 104

q: Note, next up: Cc1cccc(Cl)c1S(=O)(=O)N(CCOCC(=O)N1CCC(OCC[N+]2([O-])CCCC2)(c2cccc(F)c2)CC1)C1CC1
a: 100

q: Note, next up: COc1cc(C)c(S(=O)(=O)N2CCCC[C@H]2COCC(=O)N2CCC(OCCN3CCCC3)(c3cccc(Cl)c3)CC2)c(C)c1
a: 99

Reference for the values: patent US8318769B2
